Assay: qHTS of pediatric cancer cell lines to identify multiple opportunities for drug repurposing: Confirmatory screen for Rh18 cells (AID 1347125);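 also: cells exposed to compound for 48 h; nearly all actives have a fitted effect of over 55% in size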; also: potency is read from the fitted curve at half-maximal effect
Settings: Rh18 rhabdomyosarcoma cells, viability; series mostly up to 45.9 µM
Results filed as inconclusive are left out. Activity calls are given as the source filed them. Calls follow the shape of the dose curve; as a rule, active = well fitted cell-killing curve with a large enough effect; inconclusive = small, poorly fitted or top-dose-only effect, or effect the other way; inactive = flat fitted curve, though single readings scatter.

| COMPOUND | Potency |
| --- | --- |
| C[C@]12Cc3cn[nH]c3C[C@@H]1CC[C@@H]1[C@H]2CC[C@@]2(C)[C@H]1CC[C@]2(C)O | inactive |
| CC(C)[C@]12O[C@@H]1[C@@H]1O[C@]13[C@]1(O[C@H]1C[C@@H]1C4=C(CC[C@@]13C)C(=O)OC4)[C@H]2O | 0.0827 µM (active) |
| COc1cc([C@@H]2c3cc4c(cc3[C@@H](O)C3COC(=O)C32)OCO4)cc(OC)c1O (stereo partly drawn) | inactive |
